assay: in vitro; conditions: human, hela cells, % viability
The molecules listed here are annotated with their viability at 28.5 h, 10 µM.
Number in %, nothing else.

Observe how each entry below is paired with its result.
molecule	experimental.readout	reading
CC(Oc1ccccc1)c1nnc(SCC(=O)Nc2ccc(Br)c(Cl)c2)n1C (stereo not shown)	viability at 28.5 h, 10 µM	113
O=[N+]([O-])c1ccccc1S(=O)(=O)NCCSCc1c(F)cccc1Cl	viability at 28.5 h, 10 µM	102
Cc1ccc(C)c(-c2nn(-c3ccccc3)cc2/C=C2\SC(=S)N(CC(=O)O)C2=O)c1	viability at 28.5 h, 10 µM	98.4

Input: Endpoint output: viability at 28.5 h, 10 µM of Cn1nc(C(C)(C)C)cc1C(=O)N1CCNC(=O)C1Cc1ccccc1-c1ccc(F)cc1 (stereo not shown) . Value?
Output: 101
